Biological target: T1, UNK ZnF1-3 (human, UniProt Q9C0B0 31-174)
T1 sequence: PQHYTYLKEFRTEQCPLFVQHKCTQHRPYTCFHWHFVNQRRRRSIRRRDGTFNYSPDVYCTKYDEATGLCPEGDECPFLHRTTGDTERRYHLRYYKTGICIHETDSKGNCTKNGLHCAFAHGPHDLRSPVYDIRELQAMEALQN
Assay: nsRBNS (natural sequence RNA bind-n-seq); RBNS binding buffer (assumed for nsRBNS): 25 mM Tris pH 7.5, 150 mM KCl, 3 mM MgCl2, 0.01% Triton X-100, 500 ug/ml BSA, 20 U/ml SUPERase-In, 4 C; UNK is unkempt and MSI1 is Musashi-1; names of the RNAs are library labels; protein concentration not given here; high values mean tight binding
In all, about 24,000 sequences were measured (“enrichment r”: median about 0.99, highest 2% from about 3.7 on). This excerpt belongs to a sample that is enriched for the highest values.
measured attribute: binding signal (enrichment R)
Number only, in enrichment R; omit the unit.

binder	unit string	val
chrX:17854524:17854525:+_ENSMUSG00000037369_ENSMUST00000044484|mus_hu|motif|central (ssRNA) RNA: GGGAGUUCUACAGUCCGACGAUCUCGUGAAUUACUCUCAUUAGUGACAAAAAGCAGAUCAAAAACCUCCACUUCACAAAUGCGGCAGUAAUGAGCUGGUUCUUCUUUUGUCCGCCCAUGCCAUAUAAUCUCUUUUCCUGCAGCCAACAGAGGAUUGAGCAUCA	enrichment R	0.845
chr10:33214929:33214930:-_ENSG00000150093_ENST00000302278|hu_hu|hu_hu_hu_mus_True|18_78 (ssRNA) RNA: GGGAGUUCUACAGUCCGACGAUCAACAAGUUCAUUGAAAAACUCUCCUCUGUCAGUAAGACUGAGCACAUUUUUGUAGCUAAAUGGGCUGGUGCAGUUUUGUUCACUUGUACAAGGGUUCCUGAGCUUUGCUGGGGUUGUGCUCAACAGAGGAUUGAGCAUCA	enrichment R	1.36

Could you now look at the following binder, please?
// returns reported binding signal for input chr19:8913615:8913616:-_ENSMUSG00000071658_ENSMUST00000096259|mus_hu|mus_mus_mus_hu_False|1_38 (ssRNA) RNA: GGGAGUUCUACAGUCCGACGAUCAGGGUACCAAAACCUUCUGCCUGAAAUGGGUGCCCCACCCAGUAGGGAGUUGCAGCUGAAAGUAUCUGAUGCACUGACAGUUACUAUACGAAAGGAGGCCCCUGGGGAGGGCCCGAGAUCCAACAGAGGAUUGAGCAUCA
1.39
